Data origin, for the record: paper PMC7932521

Experiment: Human liver microsomal stability
Type: in vitro ADME
Details: liver microsomes, pH 7.4; human liver microsome; read-out: HLM Clint
endpoint-label: microsomal CLint at 0.5 μM (µL/min/mg)
Form entry: value (µL/min/mg) — number only.

Inquiry: Field request: microsomal CLint at 0.5 μM | item: N#Cc1ccc2nc(NC(=O)c3ccnc(C(F)(F)F)c3)n(CC(F)(F)F)c2c1
Reply text: 30

Inquiry: Can you check Cn1nccc1C(=O)Nc1nc2ccc(C#N)cc2n1CC(F)(F)F next?
Reply text: 17

Inquiry: Can you check Cn1nc(C(F)(F)F)cc1C(=O)Nc1nc2ccc(C#N)cc2n1CC(F)(F)F next?
Reply text: 20

Inquiry: Can you check Cn1nccc1C(=O)Nc1nc2ccc(C#N)cc2n1CC(C)(C)C next?
Reply text: 25

---

Experiment: Mouse single-dose pharmacokinetics
Assay type: in vivo
Conditions: female, BALB/c, plasma, 2 mg/kg IV
endpoint-label: clearance (mL/min/kg)
Form entry: value (mL/min/kg) — number only.

Inquiry: Field request: clearance | item: Cn1nccc1C(=O)Nc1nc2ccc(C#N)cc2n1CC(C)(C)C
Reply text: 9

---

Assay: Experimental distribution coefficient (eLogD)
Type: physicochemical
Conditions: reverse stationary phase HPLC column (Ascentis RP-Amide); experimental, pH 7.4
endpoint-label: chromatographic logD
Respond using a number only.

Inquiry: Field request: chromatographic logD | item: N#Cc1ccc2nc(NC(=O)c3ccnc(C(F)(F)F)c3)n(CC(F)(F)F)c2c1 [Compound 44]
Reply text: 3.1

Inquiry: Can you check Cn1nccc1C(=O)Nc1nc2ccc(C#N)cc2n1CC(C)(C)C [Compound 29] next?
Reply text: 3.4

Inquiry: Can you check Cn1nccc1C(=O)Nc1nc2ccc(C#N)cc2n1CC(F)(F)F [Compound 30] next?
Reply text: 2.7

Inquiry: Can you check Cn1nc(C(F)(F)F)cc1C(=O)Nc1nc2ccc(C#N)cc2n1CC(F)(F)F [Compound 39] next?
Reply text: 3

---

Test: Medium protein binding
Type: in vitro ADME
Conditions: S1 Data
Please respond with reported Media Binding for every item in the list.
Form entry: value (%) — number only.

Inquiry: Field request: Media Binding | item: Cn1nc(C(F)(F)F)cc1C(=O)Nc1nc2ccc(C#N)cc2n1CC(F)(F)F
Reply text: 88.34

Inquiry: Can you check N#Cc1ccc2nc(NC(=O)c3ccnc(C(F)(F)F)c3)n(CC(F)(F)F)c2c1 next?
Reply text: 88.65

Inquiry: Can you check Cn1nccc1C(=O)Nc1nc2ccc(C#N)cc2n1CC(F)(F)F next?
Reply text: 29.15

Inquiry: Can you check N#Cc1ccc2nc(NC(=O)c3ccc(C(F)(F)F)nc3)n(CC(F)(F)F)c2c1 next?
Reply text: 83.98

Inquiry: Can you check Cn1nccc1C(=O)Nc1nc2ccc(C#N)cc2n1CC(C)(C)C next?
Reply text: 57.20

Inquiry: Can you check COc1ccc(C(=O)Nc2nc3ccc(C#N)cc3n2CC(F)(F)F)cn1 next?
Reply text: 56.74

---

System: Leishmania infantum MHOM/MA(BE)/67/ITMAP263 amastigotes
Test: L. infantum intracellular amastigote assay in PMM
Format: cell-based
Conditions: Leishmania infantum, S1 Data; read-out: L. infantum IC50
Please respond with reported IC50 for every item in the list.
Form entry: value (µM) — number only.

Inquiry: Write down the reported IC50 of O=C(Cc1ccc(F)cc1)Nc1nc2cc(F)ccc2n1C1CCNCC1 , test system: Leishmania infantum MHOM/MA(BE)/67/ITMAP263 amastigotes.
Reply text: 34.4

Inquiry: Can you check O=C(Cc1ccc(F)cc1)Nc1nc2ccc(F)cc2n1CC1CC1 next?
Reply text: 8.06

Inquiry: Can you check N#Cc1ccc2nc(NC(=O)c3ccnn3C3CC3)n(CC(F)(F)F)c2c1 next?
Reply text: 10.1

Inquiry: Can you check N#Cc1ccc2nc(NC(=O)Cc3ccc(F)cc3F)n(CC(F)(F)F)c2c1 next?
Reply text: 10.2

Inquiry: Can you check Cn1nccc1C(=O)Nc1nc2cccnc2n1CC(C)(C)C next?
Reply text: 7.75

Inquiry: Can you check CCCn1c(NC(=O)Cc2ccc(Cl)cc2)nc2cc(F)ccc21 next?
Reply text: 4.35

Inquiry: Can you check Cn1nccc1C(=O)Nc1nc2cccnc2n1CC(F)(F)F next?
Reply text: 8.18

Inquiry: Can you check CC(C)(C)n1c(NC(=O)Cc2ccc(F)cc2)nc2cc(F)ccc21 next?
Reply text: 18.6

---

Assay: Kinetic solubility
Type: physicochemical
Conditions: kinetic solubility, pH 7.4
endpoint-label: KS pH 7.4 (μM)
Form entry: value (μM) — number only.

Inquiry: Field request: KS pH 7.4 | item: Cn1nccc1C(=O)Nc1nc2ccc(C#N)cc2n1CC(F)(F)F
Reply text: 26

Inquiry: Can you check Cn1nccc1C(=O)Nc1nc2ccc(C#N)cc2n1CC(C)(C)C next?
Reply text: 9.2

---

Please respond with reported CC50 for every item in the list.
Test: MRC-5 cytotoxicity
Type: cell-based
Conditions: human, MRC-5 cells; S1 Data

Inquiry: Field request: CC50 | item: Cn1nncc1C(=O)Nc1nc2ccc(C#N)cc2n1CC(F)(F)F
Reply text: > 64 µM

Inquiry: Can you check N#Cc1ccc2nc(NC(=O)Cc3ccc(F)cc3F)n(CC(F)(F)F)c2c1 next?
Reply text: > 64 µM

Inquiry: Can you check CN1CCC(n2c(NC(=O)c3ccnn3C)nc3ccc(C#N)cc32)CC1 next?
Reply text: > 64 µM

Inquiry: Can you check O=C(Cc1ccc(F)cc1)Nc1nc2cc(F)ccc2n1C1CCNCC1 next?
Reply text: > 64 µM

Inquiry: Can you check Cn1nccc1C(=O)Nc1nc2ccc(C#N)cc2n1CCF next?
Reply text: 13.7 µM

Inquiry: Can you check Cn1nccc1C(=O)Nc1nc2ccc(C#N)cc2n1CC(C)(C)O next?
Reply text: > 64 µM

Inquiry: Can you check Cn1nccc1C(=O)Nc1nc2ccc(C#N)cc2n1C1CC1 next?
Reply text: > 64 µM

Inquiry: Can you check Cn1nccc1C(=O)Nc1nc2cccnc2n1CC(F)(F)F next?
Reply text: 6.83 µM

Inquiry: Can you check Cn1nc(C(F)(F)F)cc1C(=O)Nc1nc2ccc(C#N)cc2n1CC(F)(F)F next?
Reply text: 7.87 µM

Inquiry: Can you check CC(C)(C)Cn1c(NC(=O)Cc2ccc(C(F)(F)F)cc2)nc2ccccc21 next?
Reply text: > 32 µM

Inquiry: Can you check Cn1nccc1C(=O)Nc1nc2cccnc2n1CC(C)(C)C next?
Reply text: 43.7 µM

Inquiry: Can you check CCCn1c(NC(=O)Cc2ccc(F)cc2)nc2c(F)cccc21 next?
Reply text: > 64 µM

Inquiry: Can you check CCCn1c(NC(=O)Cc2ccc(Cl)cc2)nc2cc(C(F)(F)F)ccc21 next?
Reply text: 11.2 µM

Inquiry: Can you check CCCn1c(NC(=O)Cc2ccc(F)cc2)nc2ccc(C#N)cc21 next?
Reply text: > 64 µM

Inquiry: Can you check CCCn1c(NC(=O)Cc2ccc(F)cc2)nc2ccccc21 next?
Reply text: > 64 µM

Inquiry: Can you check CCn1c(NC(=O)Cc2ccc(F)cc2)nc2ccc(F)cc21 next?
Reply text: > 64 µM

Inquiry: Can you check CC(C)(C)n1c(NC(=O)Cc2ccc(F)cc2)nc2cc(F)ccc21 next?
Reply text: > 64 µM

---

Assay: Mouse liver microsomal stability
Format: in vitro ADME
Conditions: CD1, mouse, liver microsomes, pH 7.4, S1 Data; read-out: MLM CLint
Procedure: The metabolic stability of the compounds was evaluated in human (pool of 200 donors, XenoTech) and mouse liver microsomes (CD1 mouse, GIBCO). […] Compounds were quantified by liquid chromatography triple quadrupole mass spectrometry (LC-MS/MS). […] Half-life (t1/2 = ln(2)/k) in minutes and intrinsic clearance (Clint = k x 1000/(0.25)) in μL/min/mg were calculated using a non-linear regression from % remaining versus incubation time. From this plot, the slope (k) was determined. […]
endpoint-label: log10 microsomal CLint at 0.5 μM (log10 of the value in µL/min/mg)
Values below are the log10 of the recorded microsomal CLint at 0.5 μM, with µL/min/mg as the unit.

Inquiry: Field request: log10 microsomal CLint at 0.5 μM | item: CCN(CC)CCCn1c(NC(=O)Cc2ccc(F)cc2)nc2ccc(C#N)cc21
Reply text: 2.19

Inquiry: Can you check N#Cc1ccc2nc(NC(=O)Cc3ccc(F)cc3F)n(CC(F)(F)F)c2c1 next?
Reply text: 1.30

Inquiry: Can you check O=C(Cc1ccc(F)cc1)Nc1nc2cc(F)ccc2n1CCCN1CCOCC1 next?
Reply text: 2.53

Inquiry: Can you check O=C(Cc1ccc(Cl)cc1)Nc1nc2cc(F)ccc2[nH]1 [Compound 18, Fc1ccc([nH]c(NC(Cc2ccc(Cl)cc2)=O)n3)c3c1] next?
Reply text: 2.56

Inquiry: Can you check O=C(Cc1ccc(F)cc1)Nc1nc2ccc(F)cc2n1CC1CC1 next?
Reply text: 2.95

Inquiry: Can you check CC(C)(C)Cn1c(NC(=O)c2ccn[nH]2)nc2ccc(C#N)cc21 next?
Reply text: 1.67
